Quick reference for IC50 among some compounds
- Test System: bovine PDE 6 (Bos taurus, UniProt P11541+P23439)
- Construct: from tissue; host or cells: bovine retina, photoreceptor outer segments (ROS)
- Sequence (P11541 2-856 limits assumed): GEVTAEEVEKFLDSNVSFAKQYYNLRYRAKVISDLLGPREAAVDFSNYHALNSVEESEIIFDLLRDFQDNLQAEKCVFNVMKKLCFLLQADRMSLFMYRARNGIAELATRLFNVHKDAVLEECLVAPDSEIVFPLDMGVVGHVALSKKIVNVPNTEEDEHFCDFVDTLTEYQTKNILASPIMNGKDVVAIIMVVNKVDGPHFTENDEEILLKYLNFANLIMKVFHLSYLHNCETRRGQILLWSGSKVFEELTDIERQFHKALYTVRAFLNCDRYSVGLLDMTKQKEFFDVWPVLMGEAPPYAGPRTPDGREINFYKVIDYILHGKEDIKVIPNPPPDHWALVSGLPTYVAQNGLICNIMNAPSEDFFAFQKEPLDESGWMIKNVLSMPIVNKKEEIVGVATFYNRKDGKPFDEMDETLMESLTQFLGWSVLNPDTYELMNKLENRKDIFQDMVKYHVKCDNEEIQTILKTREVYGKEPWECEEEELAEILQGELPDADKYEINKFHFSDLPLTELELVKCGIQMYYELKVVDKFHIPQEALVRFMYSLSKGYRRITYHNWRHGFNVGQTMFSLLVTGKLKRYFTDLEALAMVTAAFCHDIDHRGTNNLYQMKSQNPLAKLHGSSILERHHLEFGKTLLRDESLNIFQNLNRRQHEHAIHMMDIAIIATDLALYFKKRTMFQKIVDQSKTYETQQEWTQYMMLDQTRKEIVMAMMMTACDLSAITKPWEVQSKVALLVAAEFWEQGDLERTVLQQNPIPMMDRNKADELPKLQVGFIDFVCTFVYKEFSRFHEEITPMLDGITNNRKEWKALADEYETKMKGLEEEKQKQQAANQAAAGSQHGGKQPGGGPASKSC
- Sequence (P23439 2-850 limits assumed): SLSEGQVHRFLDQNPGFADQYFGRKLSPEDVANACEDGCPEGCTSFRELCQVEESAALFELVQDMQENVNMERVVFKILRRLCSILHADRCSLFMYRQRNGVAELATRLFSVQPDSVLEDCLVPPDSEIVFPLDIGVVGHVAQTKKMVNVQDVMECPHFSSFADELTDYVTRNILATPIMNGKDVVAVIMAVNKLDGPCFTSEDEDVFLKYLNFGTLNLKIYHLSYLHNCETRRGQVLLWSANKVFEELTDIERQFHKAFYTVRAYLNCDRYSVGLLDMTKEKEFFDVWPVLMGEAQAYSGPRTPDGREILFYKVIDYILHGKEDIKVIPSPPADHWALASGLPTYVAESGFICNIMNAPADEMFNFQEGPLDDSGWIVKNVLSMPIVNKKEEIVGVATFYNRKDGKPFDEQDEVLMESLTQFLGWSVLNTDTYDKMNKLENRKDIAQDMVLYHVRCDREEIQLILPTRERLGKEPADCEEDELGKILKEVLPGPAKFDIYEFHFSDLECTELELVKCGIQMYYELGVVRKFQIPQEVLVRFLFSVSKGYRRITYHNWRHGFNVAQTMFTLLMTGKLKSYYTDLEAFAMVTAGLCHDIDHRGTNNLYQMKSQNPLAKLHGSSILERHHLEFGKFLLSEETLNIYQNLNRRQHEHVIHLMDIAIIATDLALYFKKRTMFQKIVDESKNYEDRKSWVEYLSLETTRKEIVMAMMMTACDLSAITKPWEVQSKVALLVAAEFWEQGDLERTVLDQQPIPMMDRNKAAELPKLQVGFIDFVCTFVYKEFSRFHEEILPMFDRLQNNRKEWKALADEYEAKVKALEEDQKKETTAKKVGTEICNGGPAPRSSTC
- Test Protocol: Inhibition of bovine phosphodiesterase 6 (PDE 6), 3H-cGMP SPA
- Assay type: biochemical
- Condition Set: bovine PDE 6 inhibition
Put your answer as a value accompanied by its unit after it.

Compound	IC50
C[C@@]1(C(F)(F)F)C(=O)Nc2nc(-c3nn(Cc4ncccc4F)c4ncc(F)cc34)nc(NCCC(F)(F)F)c21 (single isomer, unassigned) [Example 1-1]	220 nM

Query: Tell me the measured IC50 of C[C@]1(C(F)(F)F)C(=O)Nc2nc(-c3nn(Cc4ncccc4F)c4ncc(F)cc34)nc(NCCC(F)(F)F)c21 (single isomer, unassigned) [Example 1-2] , please.
Result: 1400 nM

Where do the numbers come from? From patent US9266871B2.
